Source: patent US4507487A

Test: Mouse blood levels after single intramuscular injection
Format: in vivo, mice
Conditions: 10 mg/kg im, 120 minutes, read-out: Mouse Blood Level
measurement.label: concentration at 2 h (ng/mL)

compound	numeric.result
CO/N=C(\C(=O)NC1C(=O)N2C(C(=O)[O-])=C(C[n+]3ccsc3SC)CS[C@H]12)c1csc(N)n1 (stereo partly shown) [Example 3]	3200

---

Experiment: Mouse blood levels after single intramuscular injection
Assay type: in vivo, mice
Conditions: 40 mg/kg im, 30 minutes, read-out: Mouse Blood Level
measurement.label: concentration at 0.5 h (ng/mL)

compound	numeric.result
CO/N=C(\C(=O)NC1C(=O)N2C(C(=O)[O-])=C(C[n+]3ccsc3SC)CS[C@H]12)c1csc(N)n1 (stereo partly drawn)	32000
CSc1scc[n+]1CC1=C(C(=O)[O-])N2C(=O)C(NC(=O)/C(=N\OC3(C(=O)O)CCC3)c3csc(N)n3)[C@H]2SC1 (stereo partly drawn)	14000
CSc1scc[n+]1CC1=C(C(=O)[O-])N2C(=O)C(NC(=O)/C(=N\OC(C)(C)C(=O)O)c3csc(N)n3)[C@H]2SC1 (stereo partly drawn)	29000

---

Measured concentration at 20 min, listed per entry.
Assay: Mouse blood levels after single intramuscular injection
Type: in vivo, mice
Conditions: 10 mg/kg im, 20 minutes, read-out: Mouse Blood Level

compound	concentration at 20 min
CSc1scc[n+]1CC1=C(C(=O)[O-])N2C(=O)C(NC(=O)/C(=N\OC(C)(C)C(=O)O)c3csc(N)n3)[C@H]2SC1 (stereo partly drawn) [Example 1]	7400 ng/mL
CSc1scc[n+]1CC1=C(C(=O)[O-])N2C(=O)C(NC(=O)/C(=N\OC3(C(=O)O)CCC3)c3csc(N)n3)[C@H]2SC1 (stereo partly drawn) [Example 2]	5500 ng/mL
CO/N=C(\C(=O)NC1C(=O)N2C(C(=O)[O-])=C(C[n+]3ccsc3SC)CS[C@H]12)c1csc(N)n1 (stereo partly drawn) [Example 3]	14000 ng/mL

---

Experiment: Mouse blood levels after single intramuscular injection
Assay type: in vivo, mice
Settings: 10 mg/kg im
compounds and their reported half-life

compound	unit.string	half-life
CSc1scc[n+]1CC1=C(C(=O)[O-])N2C(=O)C(NC(=O)/C(=N\OC(C)(C)C(=O)O)c3csc(N)n3)[C@H]2SC1 (stereo partly drawn)	min	15
CSc1scc[n+]1CC1=C(C(=O)[O-])N2C(=O)C(NC(=O)/C(=N\OC3(C(=O)O)CCC3)c3csc(N)n3)[C@H]2SC1 (stereo partly drawn)	min	17
CO/N=C(\C(=O)NC1C(=O)N2C(C(=O)[O-])=C(C[n+]3ccsc3SC)CS[C@H]12)c1csc(N)n1 (stereo partly drawn)	min	47

---

Test: Mouse blood levels after single intramuscular injection
Type: in vivo, mice
Details: 40 mg/kg im, 50 minutes, read-out: Mouse Blood Level
Examples of compounds with documented concentration at 50 min follow.

compound	concentration at 50 min, ng/mL
CSc1scc[n+]1CC1=C(C(=O)[O-])N2C(=O)C(NC(=O)/C(=N\OC3(C(=O)O)CCC3)c3csc(N)n3)[C@H]2SC1 (stereo partly drawn) [Example 2]	3800
CO/N=C(\C(=O)NC1C(=O)N2C(C(=O)[O-])=C(C[n+]3ccsc3SC)CS[C@H]12)c1csc(N)n1 (stereo partly drawn) [Example 3]	24000
CSc1scc[n+]1CC1=C(C(=O)[O-])N2C(=O)C(NC(=O)/C(=N\OC(C)(C)C(=O)O)c3csc(N)n3)[C@H]2SC1 (stereo partly drawn) [Example 1]	9000
